Attribution: ChEMBL document CHEMBL2021830

# Test system: ACHN
# assay.details: Growth inhibition of human ACHN cells after 48 hrs by SRB assay
# Format: functional
readout: GI50
Don't forget the unit after the number, please.

[Q] Could you tell me which GI50 is on file for CC(C)[C@@]12C[C@@H](OC(=O)CO)[C@@](C)(O1)[C@@H]1CC[C@@H](C)[C@H]1[C@@H]2OC(=O)C(Cl)C(Cl)c1ccccc1 (single isomer, unassigned; epimer 1) ?
[A] 140 nM

[Q] Could you tell me which GI50 is on file for CC(C)[C@@]12C[C@@H](OC(=O)CO)[C@@](C)(O1)[C@@H]1CC[C@@H](C)[C@H]1[C@@H]2OC(=O)C(Cl)C(Cl)c1ccccc1 (single isomer, unassigned; epimer 2) ?
[A] 49 nM

[Q] Could you tell me which GI50 is on file for CC(C)[C@@]12C[C@@H](OC(=O)CO)[C@@](C)(O1)[C@@H]1CC[C@@H](C)[C@H]1[C@@H]2OC(=O)C(Cl)C(O)c1ccccc1 (single isomer, unassigned; epimer 1) ?
[A] 320 nM

[Q] Could you tell me which GI50 is on file for CC(C)[C@@]12C[C@@H](OC(=O)CO)[C@@](C)(O1)[C@@H]1CC[C@@H](C)[C@H]1[C@@H]2OC(=O)C(Cl)C(O)c1ccccc1 (single isomer, unassigned) ?
[A] 1400 nM
